Assay: NCI Yeast Anticancer Drug Screen. Data for the mec2-1 strain (AID 157)
Conditions: S. cerevisiae mec2-1 strain, at 50.0 µM, stronger effect = higher value
This is part of a sample that, as a whole, favours compounds with a hit. Of some 79,000 tested, about 15% had one in any assay. The source made the active and inactive calls. Cut-off read from the data, not from the text of the source: active = growth inhibition above about 70%; inactive = the rest.
READOUT: growth inhibition

> print(dat)
                                    compound  experimental.result
 1  CCC(=O)NCC1CCCN2CCCCC12 (configuration not stated)    -8.35% (inactive)
 2     O=[N+]([O-])c1cc(S(=O)(=O)F)cc(Cl)c1S         99% (active)
 3                              O=CNc1ccccc1      1.7% (inactive)
 4         S=C(N=Nc1ccccc1)NNc1ccccc1.[Zn+2]    -9.35% (inactive)
 5  COc1ccc(N=NC(=O)NC(CC(C)C)C(=O)NC(C)C(=O)O)cc1 (configuration not stated)    -26.4% (inactive)
 6  Oc1ccccc1C1NCCc2[nH]cnc21 (configuration not stated)     11.3% (inactive)
 7  CN(C)P(=O)(N(C)C)N(C)C (tested in a mixture with another compound)       -7% (inactive)
 8  C[N+](C)(Cc1ccc([N+](=O)[O-])cc1)c1ccc(N(CCCl)CCCl)cc1    -24.3% (inactive)
 9     NC(=O)Oc1cc(OC(N)=O)cc(N(CCCl)CCCl)c1       34% (inactive)
10  CCCC[C@@H]1CCN2C[C@@H](O)[C@@H](O)[C@@H]2[C@H]1O     5.65% (inactive)
11  Cc1ccc(N2C(=O)C3C(C2=O)C2(Cl)C(Cl)=C(Cl)C3(Cl)C2(Cl)Cl)cc1Cl (configuration not stated)     3.25% (inactive)
12                 CCN(CC)/C(=C\Cl)Nc1ccccn1       -4% (inactive)
